# condition.notes: human;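 further: human clinical data: severe hepatitis, meaning potentially life-threatening liver failure or clinically observed cases, the value counts how many indexed literature references report it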
assay.readout: Hepatotoxicity (severe hepatitis)

molecule="CCN1CCC[C@H]1CNC(=O)c1c(O)c(Cl)cc(Cl)c1OC [RACLOPRIDE]" observed_measurement=0
molecule="FC(F)(F)C(Cl)Br (centres undefined) [HALOTHANE]" observed_measurement=35
molecule=CCOC(=O)[C@H](CCc1ccccc1)N[C@@H](C)C(=O)N1[C@H](C(=O)O)C[C@@H]2CCC[C@@H]21 observed_measurement=0
molecule="CN1[C@@H]2CC[C@H]1C[C@@H](OC(=O)c1c[nH]c3ccccc13)C2 [TROPISETRON]" observed_measurement=0
molecule="CCN(CC)CCNC(=O)c1cc(Cl)c(N)cc1OC [METOCLOPRAMIDE]" observed_measurement=0
molecule="CCC(=O)O[C@@H](O[P@](=O)(CCCCc1ccccc1)CC(=O)N1C[C@H](C2CCCCC2)C[C@H]1C(=O)O)C(C)C [FOSINOPRIL]" observed_measurement=0
molecule="CCCN(CCC)S(=O)(=O)c1ccc(C(=O)O)cc1 [PROBENECID]" observed_measurement=1
molecule="CC(=O)NC[C@H]1CN(c2ccc(N3CCOCC3)c(F)c2)C(=O)O1 [LINEZOLID]" observed_measurement=0
molecule="CC(=O)[C@H]1CC[C@H]2[C@@H]3CCC4=CC(=O)CC[C@]4(C)[C@H]3CC[C@]12C [PROGESTERONE]" observed_measurement=0

These measurements were taken from ChEMBL document CHEMBL3137667.
